// data source = the supplement of paper PMC10981050

# Tested on: MOLM14;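 further: after 48 h exposure read by CellTiter-Glo luminescence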
# Test protocol: cell viability relative to vehicle control; higher = less cytotoxic
# Condition set: 10 µM; SRSF2 genotype: SRSF2 wt/wt
Structures can show the parent of a compound that is named as a salt.
Measurement label: cell viability (%)
One number for each entry, in %.

Recorded cell viability, per entry:
Molecule | Assayed target | Reported
COc1ccc(C(=O)O)c(O)c1 | MOLM14 | 106
CC(C)CCn1c(CN2CCN(C(=O)C3CC3)CC2)nc2c1c(=O)n(C)c(=O)n2C | MOLM14 | 104
CS(=O)(=O)N1CCc2c(-c3cnc(N)nc3)nc(N3CCOCC3)nc21 | MOLM14 | 35.9
O=c1cc[nH]c(=S)[nH]1 | MOLM14 | 106
CCN(CC)CCOC(=O)c1ccc(N)cc1 [Procaine (Novocaine) HCl] | MOLM14 | 99.7
Cc1cc(C)c(/C=C2\C(=O)Nc3ccccc32)[nH]1 [Semaxanib (SU5416)] | MOLM14 | 19.8

I need cell viability for every entry listed below, if you could help.
1. CC(C)C(=O)Oc1ccc(CO)cc1[C@H](CCN(C(C)C)C(C)C)c1ccccc1 [Fesoterodine Fumarate]
2. Cc1cccc(-c2nn3c(c2-c2ccnc4ccc(C(N)=O)cc24)CCC3)n1
3. CN1CCC(CNc2ccc3ncc(-c4cccc(OC(F)(F)F)c4)n3n2)CC1 [SGI-1776 free base]
4. O=C(/C=C/c1ccccc1)OCc1ccccc1 [Benzyl cinnamate]
5. OC1OC[C@@H](O)[C@@H](O)[C@@H]1O (stereo partly drawn) [D(-)-Arabinose]
6. Fc1ccc(C(c2ccc(F)cc2)N2CCN(C/C=C/c3ccccc3)CC2)cc1 [Flunarizine 2HCl]
7. Cc1cn([C@@H]2C[C@@H](O)[C@H](CO)O2)c(=O)[nH]c1=O [Telbivudine (Sebivo, Tyzeka)]
8. NC(=O)Cc1c[nH]c2ccccc12 [Indole-3-acetamide]

Data returned:
1. 104
2. 96.1
3. 0.48
4. 104
5. 111
6. 60.7
7. 108
8. 103

I need cell viability for every entry listed below, if you could help.
1. O=c1[nH]ccc2c(S(=O)(=O)N3CCCNCC3)cccc12 [Hydroxyfasudil (HA-1100)HCl]
2. CC1(C)O[C@@H]2[C@@H](CO[C@@]3(COS(N)(=O)=O)OC(C)(C)O[C@@H]23)O1 [Topiramate]

Data returned:
101
105
